# Assay System: T1, 鼠CLDN18.2 (mCLDN18.2), claudin-18 isoform A2.1 [Mus musculus], NP_001181850.1 (mouse, UniProt P56857 10-264)
# T1 construct: also called 鼠CLDN18.2+细胞; mCLDN18.2+ cell
# T1 chain: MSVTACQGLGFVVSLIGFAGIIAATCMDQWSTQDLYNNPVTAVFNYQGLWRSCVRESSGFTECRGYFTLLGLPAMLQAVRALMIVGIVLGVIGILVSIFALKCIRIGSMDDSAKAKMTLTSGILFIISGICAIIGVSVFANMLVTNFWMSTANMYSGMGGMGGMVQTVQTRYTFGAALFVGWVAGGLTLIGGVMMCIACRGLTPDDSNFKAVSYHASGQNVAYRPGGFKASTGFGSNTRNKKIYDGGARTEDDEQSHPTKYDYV
# Experiment: cell ELISA on mCLDN18.2+ cells (Table 23)
Recorded Endpoint: Emax
Numbers only.

Use these answered entries as a reference point.
Binder	Emax
anti-hCLDN18.2抗体mab5b (重组表达) (antibody, human IgG1, kappa, V domains shown, also called 鼠源抗体mab5b) VH: QVQLQQSGAELIGPGTSVKVSCKASGYAFSNYLIEWVKQRPEQGLEWIGLINPGSGGTNYNEKFKGKATLTADKSSSTAYMQLSSLTSDDSAVYFCARVYYGNSFAYWGQGTLVTVSA VL: DIVMTQSPSSLTVTAGEKVTMSCKSSQSLLNSGNQKNYLTWYQQKPGQPPKLLIYWASTRESGVPDRFTGSGSGTHFTLTISSVQAEDLAVYYCQNDYFYPFTFGSGTKLEKKR	2.17
Ab36抗体 (antibody, human IgG1, kappa, V domains shown, Ab6 with NS->NT in light CDR1 and heavy CDR3; hIgG1 / kappa) VH: QVQLVQSGAEVKKPGSSVKVSCKASGYAFSNYLIEWVKQAPGQGLEWIGLINPGSGGTNYNEKFKGKATITADKSTSTAYMELSSLRSEDTAVYYCARVYYGNTFAYWGQGTLVTVSS VL: DIVMTQSPDSLAVSLGERATISCKSSQSLLNTGNNKNYLAWYQQKPGQPPKLLIYWASTRESGVPDRFSGSGSGTDFTLTISSLQAEDVAVYYCQNDYFYPFTFGQGTKLEIKR	2.18
Ab51抗体 (antibody, human IgG1, kappa, V domains shown, hIgG1 (DEL) / kappa; also called L21/H64 DEL) VH: QVQLVQSGAEVKKPGSSVKVSCKASGYAFSNYLIEWVRQAPGQGLEWMGLINPGSGGTNYNEKFKGRVTITADESTSTAYMELSSLRSEDTAVYYCARVYYGNTFAYWGQGTLVTVSS VL: DIVMTQSPDSLAVSLGERATINCKSSQSLLNTGNNKNYLAWYQQKPGQPPKLLIYWASTRESGVPDRFSGSGSGTDFTLTISSLQAEDVAVYYCQNDYFYPFTFGQGTKLEIKR	1.91

Okay, next one:
Quick one: Emax of 人源化Ab10抗体 (antibody, human IgG1, kappa, V domains shown, Humanized, hIgG1 (356-358 DEL) / kappa; also called L14/H51) VH: QVQLVQSGAEVKKPGSSVKVSCKASGYAFSNYLIEWVKQAPGQGLEWIGLINPGSGGTNYNEKFKGKATITADKSTSTAYMELSSLRSEDTAVYYCARVYYGNSFAYWGQGTLVTVSS VL: DIVMTQSPDSLAVSLGERATISCKSSQSLLNSGNQKNYLTWYQQKPGQPPKLLIYWASTRESGVPDRFSGSGSGTDFTLTISSLQAEDVAVYYCQNDYFYPFTFGQGTKLEIKR ?
2.27

Provenance of the data: patent CN110606891A
